# Procedure text: Cmax in Sprague-Dawley rat plasma at 3 mg/kg, po measured after 24 hrs by LC-MS/MS analysis
# Format: ADME, organism-based
# Parameters: time 24 hrs, dose 3 mg/kg, route po
# Assay conditions: in vivo

Item smiles: Cc1c(Br)cc(NC(=O)NS(=O)(=O)O)cc1Br
Cmax (nM): 877

* * *

# Procedure text: Volume of distribution at steady state in CD-1 mouse plasma at 2 mg/kg, iv measured after 8 hrs by LC-MS/MS analysis
# Format: ADME, organism-based
# Assay conditions: in vivo

Compound: Cc1c(Br)cc(NC(=O)C(c2ccccc2)S(=O)(=O)O)cc1Br (centres undefined)
Vdss / L/kg: 3.4

Compound: Cc1c(Br)cc(NC(=O)NS(=O)(=O)O)cc1Br
Vdss / L/kg: 0.42

Compound: Cc1c(Br)cc(NC(=O)CS(=O)(=O)O)cc1Br
Vdss / L/kg: 0.58

Compound: O=C(CS(=O)(=O)O)Nc1ccc(N2CCOCC2)c(Br)c1
Vdss / L/kg: 0.73
